- studySystem: T1, EphA2 SAM domain (wild type) (human, UniProt P29317 897-976)
- T1 sequence (looked up): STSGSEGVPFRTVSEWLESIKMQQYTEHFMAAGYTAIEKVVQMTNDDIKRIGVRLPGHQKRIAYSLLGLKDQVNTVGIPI
- procedureText: ITC
pKd: −log10 of the molar value.

| binder | pKd |
| --- | --- |
| SHIP2 SAM domain (wild type) (domain or fragment, human, UniProt O15357 1192-1258, looked up) RASGLGEAGMSAWLRAIGLERYEEGLVHNGWDDLEFLSDITEEDLEEAGVQDPAHKRLLLDTLQLSK | 5.28 |
